cell viability values, listed per item
Test system: MOLM14;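 further: after 48 h exposure read by CellTiter-Glo luminescence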
assayDetails: cell viability relative to vehicle control; higher = less cytotoxic
particulars: 10 µM; SRSF2 genotype: SRSF2 P95H/wt
Where a name gives a salt, the structure may show the parent alone.

| compound | cell viability, % |
| --- | --- |
| O=C(O)C1=C(CSc2nnnn2CS(=O)(=O)O)CS[C@@H]2[C@H](NC(=O)[C@H](O)c3ccccc3)C(=O)N12 [Cefonicid sodium] | 96.3 |
| Nc1c(Br)cc(Br)cc1CN[C@H]1CC[C@H](O)CC1 [Ambroxol] | 101 |
| O=C(C1CCCCC1)N1CC(=O)N2CCc3ccccc3C2C1 (stereo unspecified) [Praziquantel (Biltricide)] | 111 |
| CCOc1ccc(NC(C)=O)cc1 [Phenacetin] | 98.4 |
| O=c1cc(CN2CCOCC2)occ1OCCCCCSc1ccnc2cc(C(F)(F)F)ccc12 | 58.9 |
| C[C@]1(O)C[C@@H](O)[C@@H]2C=CO[C@@H](O[C@@H]3O[C@H](CO)[C@@H](O)[C@H](O)[C@H]3O)[C@@H]21 [Leonuride] | 102 |
| CC(C)(N)C(=O)N[C@H](COCc1ccccc1)C(=O)N1CCC2(CC1)CN(S(C)(=O)=O)c1ccccc12 [Ibutamoren mesylate] | 80.1 |
| CC(=CCNc1ncnc2c1ncn2C1OC(CO)C(O)C1O)CO (stereo not drawn) [trans-Zeatin-riboside] | 104 |
| CCCOC(=O)c1ccc(O)cc1 [Propylparaben] | 98.9 |
| CCc1cc(Nc2nc(-c3ccc(-n4cnc(C)c4)c(F)c3)cs2)c(C)cc1C | 96.6 |
| COc1cc(Nc2ncc(F)c(Nc3ccc4c(n3)NC(=O)C(C)(C)O4)n2)cc(OC)c1OC [R406(free base)] | 25.2 |
| CCc1ccc(Cc2ccc3c(c2)[C@]2(OC3)O[C@H](CO)[C@@H](O)[C@H](O)[C@H]2O)cc1 [Tofogliflozin(CSG 452)] | 80.2 |
| C=C(C)[C@@H]1CCC2=CC(=O)C[C@@H](C)[C@]2(C)C1 [Nootkatone] | 105 |
| CC(C)(C)c1ccc(S(=O)(=O)NCc2ccc(C(=O)Nc3cccnc3)cc2)cc1 | 9.88 |
| Cc1c(F)cc(C(=O)NC2CC2)cc1-c1ccc(C(=O)NCC(C)(C)C)cn1 [Losmapimod] | 94.1 |
| CC1(C)CC[C@]2(NC(=O)C(C)(F)F)CC[C@]3(C)[C@H](C(=O)C=C4[C@@]5(C)C=C(C#N)C(=O)C(C)(C)[C@@H]5CC[C@]43C)[C@@H]2C1 [Omaveloxolone (RTA-408)] | 0.3 |

---

Catalogue of compounds with associated cell viability
Tested on: MOLM14;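 further: after 48 h exposure read by CellTiter-Glo luminescence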
assayDetails: cell viability relative to vehicle control; higher = less cytotoxic
particulars: 10 µM; SRSF2 genotype: SRSF2 P95H/wt
Where a name gives a salt, the structure may show the parent alone.
resultType: cell viability (%)

| compound | resultType | measuredValue |
| --- | --- | --- |
| CCCCCCNC(=O)Nc1ccc(S(=O)(=O)Nc2ccc(CCNC[C@H](O)COc3ccc(O)cc3)cc2)cc1 | cell viability | 75.5 |
| O=C1CCc2ccccc2O1 [Dihydrocoumarin] | cell viability | 105 |
| CC1=C(C(=O)OC(C)C)C(c2cccc([N+](=O)[O-])c2)C(C(=O)OC2CN(C(c3ccccc3)c3ccccc3)C2)=C(N)N1 (centres undefined) | cell viability | 82.1 |
| C[C@@H]1CC[C@@]2(NC1)O[C@H]1C[C@H]3[C@@H]4CC=C5C[C@@H](O[C@@H]6O[C@H](CO)[C@@H](O[C@@H]7O[C@@H](C)[C@H](O)[C@@H](O)[C@H]7O)[C@H](O)[C@H]6O[C@@H]6O[C@@H](C)[C@H](O)[C@@H](O)[C@H]6O)CC[C@]5(C)[C@H]4CC[C@]3(C)[C@H]1[C@@H]2C | cell viability | 81.6 |
| COc1cc(O)c(C(=O)/C=C/c2ccccc2)c(OC)c1 | cell viability | 22.6 |
| N#CCC1(n2cc(-c3ncnc4[nH]ccc34)cn2)CN(C2CCN(C(=O)c3ccnc(C(F)(F)F)c3F)CC2)C1 | cell viability | 97.6 |
| O=C(O)C1=CO[C@@H](O[C@@H]2O[C@H](CO)[C@@H](O)[C@H](O)[C@H]2O)[C@@H]2C(CO)=CC[C@H]12 | cell viability | 92.5 |
| COC(=O)c1ccc(O)cc1 [Methyl 4-hydroxybenzoate] | cell viability | 91.9 |
| C[C@H](CCC(=O)O)[C@H]1CC[C@H]2[C@@H]3[C@H](O)C[C@@H]4C[C@H](O)CC[C@]4(C)[C@H]3C[C@H](O)[C@]12C [Sodium cholate] | cell viability | 89.8 |
| Cc1ccc(=O)n(-c2ccccc2)c1 | cell viability | 97.1 |
| Cc1c(Nc2ncccc2C(=O)O)cccc1C(F)(F)F | cell viability | 87.4 |
| Nc1ccc(S(=O)(=O)Nc2cncc(Cl)n2)cc1 [Sulfalozine sodium] | cell viability | 92.7 |
| CN1CCc2c(c3ccccc3n2Cc2ccc(C(=O)NO)cc2)C1 [Tubastatin A hydrochloride] | cell viability | 43.8 |
| COC(=O)[C@H](CCSC)NC(=O)c1ccc(NC[C@@H](N)CS)cc1-c1ccccc1 | cell viability | 83.4 |
| Nc1nc(F)nc2c1ncn2[C@@H]1O[C@H](CO)[C@@H](O)[C@@H]1O | cell viability | 65.7 |
| CCCCCCCCCC(=O)N[C@@H](Cc1c[nH]c2ccccc12)C(=O)N[C@H](CC(N)=O)C(=O)N[C@@H](CC(=O)O)C(=O)N[C@@H]1C(=O)NCC(=O)N[C@@H](CCCN)C(=O)N[C@@H](CC(=O)O)C(=O)N[C@H](C)C(=O)N[C@@H](CC(=O)O)C(=O)NCC(=O)N[C@H](CO)C(=O)N[C@@H]([C@H](C)CC(=O)O)C(=O)N[C@@H](CC(=O)c2ccccc2N)C(=O)O[C@@H]1C | cell viability | 99 |
| C[C@@H]1CN(c2c(F)c(N)c3c(=O)c(C(=O)O)cn(C4CC4)c3c2F)C[C@H](C)N1 | cell viability | 101 |
| N[C@@H](Cc1cc(I)c(Oc2cc(I)c(O)c(I)c2)c(I)c1)C(=O)O | cell viability | 98.8 |
| Cc1ccc(NC(=O)Nc2cc(C(F)(F)F)ccc2F)cc1Nc1ccc2c(c1)NC(=O)/C2=C\c1ccc[nH]1 | cell viability | 86.5 |
| CCc1ccc(/C=C2/SC(=S)NC2=O)cc1 | cell viability | 105 |
| O=C(O)CCCNC(=O)c1cccnc1 | cell viability | 99.9 |
| COCCCC/C(=N\OCCN)c1ccc(C(F)(F)F)cc1 [Fluvoxamine maleate] | cell viability | 87.8 |
| CCCC(=O)Nc1ncnc2c1ncn2[C@@H]1O[C@@H]2COP(=O)(O)O[C@H]2[C@H]1OC(=O)CCC | cell viability | 83.6 |
| CN1CCN(c2ccc(OC(F)(F)F)c(Nc3ncc4c(n3)-c3c(c(C(N)=O)nn3CCO)CC4)c2)CC1 | cell viability | 17.5 |
| Cc1ccc(-n2nc(C(C)(C)C)cc2NC(=O)NCc2cc(F)ccc2Oc2ccc3c(cnn3CCO)c2)cc1 | cell viability | 32.8 |
| COc1ccc(-c2cc(=O)c3c(O)c(OC)c(O)c(OC)c3o2)cc1 | cell viability | 64 |
| CC[C@H](Nc1ncnc2[nH]cnc12)c1oc2ccccc2c(=O)c1-c1cccc(F)c1 [Tenalisib (RP6530)] | cell viability | 82.4 |
| COc1cc(C=O)cc(OC)c1O | cell viability | 99.2 |
| C[C@]12CC[C@@H]3c4ccc(OC(=O)c5ccccc5)cc4CC[C@H]3[C@@H]1CC[C@@H]2O [Estradiol Benzoate] | cell viability | 82.6 |
